The following sequences are shown together with reported IC50 values.
molecular target: HLA A2.1 (Homo sapiens, UniProt P04439, D140Y/D185E/D98H/E176V/E277Q/G131W/G231S/I119V/I121R/I166T/I218V/L300P/L318F/N151K/N90K/P208A/P217A/Q86G/Q94H/R138H/R169H/T345S); construct: endogenous in cells; experiment: biochemical; type: binding
No end group written: not given here.

Worked cases, IC50 given:
sequence	measured_parameter	measurement
ATGFKQSSKAL [ATGFKQSSKAL]	IC50	> 30 µM
TINKEEAL [TINKEEAL]	IC50	> 30 µM

Here's the next entry for you.
Ask: // query IC50 value for entry `VASGAGEAAI`
Reply: > 50 µM

###

Entries and their IC50
biological target: HLA A3.2 (Homo sapiens, UniProt P04439); construct: endogenous in cells; assay: biochemical; format: binding
No end group written: not given here.

Check out these entries, answers already filled in.
sequence	measured_parameter	measurement
QSSKALQR	IC50	> 30 µM
LTINKEEALQR	IC50	> 30 µM

We next turn to a different sequence, shown below.
Ask: Find the recorded IC50 belonging to `KQSSKALQR` and report it.
Reply: 0.043 µM

###

Reported IC50 is given for each of the following sequences.
biological target: HLA A2.1 (Homo sapiens, UniProt P04439, D140Y/D185E/D98H/E176V/E277Q/G131W/G231S/I119V/I121R/I166T/I218V/L300P/L318F/N151K/N90K/P208A/P217A/Q86G/Q94H/R138H/R169H/T345S); construct: endogenous in cells; test: biochemical; type: binding
No end group written: not given here.

sequence	IC50
CITQGKAI	> 50 µM
PLTINKEEA	> 30 µM
DLSSCITQGKA	> 50 µM

Ask: Quick one: IC50 for PLTINKEEAL [PLTINKEEAL] ?
Reply: > 30 µM

Ask: Which IC50 value belongs to `HVASGAGEAAI` ?
Reply: > 50 µM
